# tested_on: recombinant human ALK5 (TGF-βR1) protein (Homo sapiens)
# Construct: purchased Life Technologies PR9075A
# assay_info: Biochemical ALK5 (TGF-βR1) assay to measure pKi (LANCE Ultra ULight kinase assay)
# condition_set: apparent pKi from pIC50 by Cheng-Prusoff, read-out: ALK5 pKi (converted)
measure_name: Ki

Record Cc1cccc(-c2[nH]cnc2-c2ccc3ncc(-c4csc(C(=O)OCCN5CCNCC5)n4)cc3c2)n1 has recombinant human ALK5 (TGF-βR1) protein (Homo sapiens) Ki equal to 0.0398 to 0.316 nM

Record Cc1nc(-c2n[nH]cc2-c2ccc3ncc(-c4cn5c(n4)CNCC5)cc3n2)ccc1F has recombinant human ALK5 (TGF-βR1) protein (Homo sapiens) Ki equal to < 0.0316 nM

Record Cc1cccc(-c2[nH]cnc2-c2ccc3ncc(C4=CC[C@H](NC(=O)[C@@H]5CCCN5)CC4)cc3c2)n1 has recombinant human ALK5 (TGF-βR1) protein (Homo sapiens) Ki equal to 0.0398 to 0.316 nM

Record Cc1cccc(-c2[nH]cnc2-c2ccc3ncc(-c4cnc(C(=O)OCCN5CCNCC5)nc4)cc3c2)n1 has recombinant human ALK5 (TGF-βR1) protein (Homo sapiens) Ki equal to 0.398 to 3.16 nM

Record Cc1cccc(-c2[nH]cnc2-c2ccc3ncc(-c4nccc(C(=O)OC5CNC5)n4)cc3c2)n1 has recombinant human ALK5 (TGF-βR1) protein (Homo sapiens) Ki equal to 0.398 to 3.16 nM

Record Cc1cccc(-c2[nH]cnc2-c2ccc3ncc(-c4cncc(C(=O)OCC5CNC5)c4)cc3c2)n1 has recombinant human ALK5 (TGF-βR1) protein (Homo sapiens) Ki equal to 0.0398 to 0.316 nM

Record Cc1cccc(-c2[nH]cnc2-c2ccc3ncc(N4CC5(CNC5)C4)cc3c2)n1 has recombinant human ALK5 (TGF-βR1) protein (Homo sapiens) Ki equal to < 0.0316 nM

Record Cc1nc(-c2[nH]cnc2-c2ccc3ncc(-c4cn5c(n4)CNCC5)cc3n2)ccc1F has recombinant human ALK5 (TGF-βR1) protein (Homo sapiens) Ki equal to 0.0398 to 0.316 nM

Record Cc1cccc(-c2[nH]cnc2-c2ccc3ncc(-c4cccc5c4CNC5)cc3c2)n1 has recombinant human ALK5 (TGF-βR1) protein (Homo sapiens) Ki equal to 0.0398 to 0.316 nM

Record Cc1cccc(-c2nnn(C)c2-c2ccc3ncc(N4CCCNCC4)cc3c2)n1 has recombinant human ALK5 (TGF-βR1) protein (Homo sapiens) Ki equal to 0.398 to 3.16 nM

Record Cc1cccc(-c2[nH]c(CNc3ccccc3F)nc2-c2ccc3ncc(N4CCC(N(C)C)C4)cc3c2)n1 (racemic) has recombinant human ALK5 (TGF-βR1) protein (Homo sapiens) Ki equal to 0.0398 to 0.316 nM

Record Cc1cccc(-c2n[nH]cc2-c2ccc3ncc(O)cc3n2)n1 has recombinant human ALK5 (TGF-βR1) protein (Homo sapiens) Ki equal to 0.0398 to 0.316 nM

Record Cc1cccc(-c2c(-c3ccc4ncc(NCCN5CCN(C(C)C)CC5)cc4c3)nnn2Cc2ccccc2)n1 has recombinant human ALK5 (TGF-βR1) protein (Homo sapiens) Ki equal to 3.98 to 31.6 nM

Record COc1nc(-c2ccc3ncc(Br)cc3c2)c(-c2cccc(C)n2)[nH]1 has recombinant human ALK5 (TGF-βR1) protein (Homo sapiens) Ki equal to 0.398 to 3.16 nM

Record Cc1cccc(-c2[nH]cnc2-c2ccc3ncc(C(=O)O[C@H]4CCN(C)C4)cc3c2)n1 has recombinant human ALK5 (TGF-βR1) protein (Homo sapiens) Ki equal to 0.398 to 3.16 nM

Record Cc1cccc(-c2n[nH]cc2-c2ccc3ncc(-c4cccc(C(=O)O)c4)cc3n2)n1 has recombinant human ALK5 (TGF-βR1) protein (Homo sapiens) Ki equal to < 0.0316 nM

Record Cc1cccc(-c2[nH]cnc2-c2ccc3ncc(C4=CCN(C)C4)cc3n2)n1 has recombinant human ALK5 (TGF-βR1) protein (Homo sapiens) Ki equal to < 0.0316 nM

Record Cc1cccc(-c2[nH]cnc2-c2ccc3ncc(C4=CCC(C(=O)O)CC4)cc3c2)n1 (centres unmarked) has recombinant human ALK5 (TGF-βR1) protein (Homo sapiens) Ki equal to 0.0398 to 0.316 nM

Record Cc1cccc(-c2nc3ccccn3c2-c2ccc3ncc(-c4cnc5n4CCNC5)cc3n2)n1 has recombinant human ALK5 (TGF-βR1) protein (Homo sapiens) Ki equal to 0.0398 to 0.316 nM

Record Cc1nc(-c2n[nH]cc2-c2ccc3ncc(NCCN4CCCC4)cc3n2)ccc1F has recombinant human ALK5 (TGF-βR1) protein (Homo sapiens) Ki equal to < 0.0316 nM

Record Cc1cccc(-c2[nH]cnc2-c2ccc3nccc(C(=O)OCC4CNC4)c3c2)n1 has recombinant human ALK5 (TGF-βR1) protein (Homo sapiens) Ki equal to 0.398 to 3.16 nM

Record Cc1cccc(-c2[nH]cnc2-c2ccc3ncc(-c4csc(C(=O)OC[C@@H]5CCCCN5)c4)cc3c2)n1 has recombinant human ALK5 (TGF-βR1) protein (Homo sapiens) Ki equal to < 0.0316 nM

Record Cc1cccc(-c2[nH]cnc2-c2ccc3ncc(C4=CCNC4)cc3n2)n1 has recombinant human ALK5 (TGF-βR1) protein (Homo sapiens) Ki equal to 0.0398 to 0.316 nM

Record Cc1cccc(-c2n[nH]cc2-c2ccc3ncc(-c4cc5n(n4)CCNC5)cc3n2)n1 has recombinant human ALK5 (TGF-βR1) protein (Homo sapiens) Ki equal to < 0.0316 nM

Record Cc1cccc(-c2n[nH]cc2-c2ccc3ncc(-c4ccc5c(n4)CCNC5)cc3n2)n1 has recombinant human ALK5 (TGF-βR1) protein (Homo sapiens) Ki equal to < 0.0316 nM

Record Cc1nc(-c2n[nH]cc2-c2ccc3ncc(N4CCC(N(C)C)CC4)cc3n2)ccc1F has recombinant human ALK5 (TGF-βR1) protein (Homo sapiens) Ki equal to 0.0398 to 0.316 nM

Record Cc1cccc(-c2[nH]cnc2-c2ccc3ncc(N4CC(N(C)C)C4)cc3c2)n1 has recombinant human ALK5 (TGF-βR1) protein (Homo sapiens) Ki equal to 0.0398 to 0.316 nM

Record Cc1cccc(-c2[nH]cnc2-c2ccc3ncc(-c4ccc(C(=O)OCCN5CCNCC5)s4)cc3c2)n1 has recombinant human ALK5 (TGF-βR1) protein (Homo sapiens) Ki equal to 0.0398 to 0.316 nM

Record Cc1cccc(-c2nc3ccccn3c2-c2ccc3ncc(NCCN4CCN(C(C)C)CC4)cc3n2)n1 has recombinant human ALK5 (TGF-βR1) protein (Homo sapiens) Ki equal to 0.0398 to 0.316 nM

Record Cc1cccc(-c2n[nH]cc2-c2ccc3ncc(-c4cccs4)cc3n2)n1 has recombinant human ALK5 (TGF-βR1) protein (Homo sapiens) Ki equal to 0.0398 to 0.316 nM

Record Cc1cccc(-c2n[nH]cc2-c2ccc3ncc(N4CCC(N(C)C)C4)cc3n2)n1 (racemic) has recombinant human ALK5 (TGF-βR1) protein (Homo sapiens) Ki equal to < 0.0316 nM

Record Cc1cccc(-c2nc3ccccn3c2-c2ccc3ncc(Br)cc3n2)n1 has recombinant human ALK5 (TGF-βR1) protein (Homo sapiens) Ki equal to 0.0398 to 0.316 nM

====

For each of the compounds below, state its Ki.
# tested_on: recombinant human ALK5 (TGF-βR1) protein (Homo sapiens, UniProt P36897)
# Construct: purchased Life Technologies PR9075A
# assay_info: Biochemical ALK5 (TGF-βR1) assay to measure pKi (LANCE Ultra ULight kinase assay)
# condition_set: apparent pKi from pIC50 by Cheng-Prusoff, read-out: ALK5 pKi (converted)

// recorded Ki for CNCCn1cc(-c2cnc3ccc(-c4c(-c5cccc(C)n5)nnn4Cc4ccccc4)cc3c2)cn1 : 0.0398 to 0.316 nM

// recorded Ki for Cc1cccc(-c2nnn(C)c2-c2ccc3ncc(-c4cn[nH]c4)cc3c2)n1 : < 0.0316 nM

// recorded Ki for CCOC(=O)CN1CCN(Cc2ccnc3ccc(-c4c[nH]nc4-c4cccc(C)n4)nc23)CC1 : 0.398 to 3.16 nM

// recorded Ki for Cc1cccc(-c2n[nH]cc2-c2ccc3ncc(-c4cnn(C5CNC5)c4)cc3n2)n1 : < 0.0316 nM

// recorded Ki for Cc1cccc(-c2[nH]cnc2-c2ccc3ncc(-c4csc(C(=O)OCCC5CNC5)c4)cc3c2)n1 : < 0.0316 nM

// recorded Ki for Cc1cccc(-c2[nH]cnc2-c2ccc3ncc(-c4cn5c(n4)CNCC5)cc3n2)n1 : 0.0398 to 0.316 nM

// recorded Ki for Cc1cccc(-c2[nH]cnc2-c2ccc3ncc(C(=O)OCCCN4CCNCC4)cc3c2)n1 : 0.0398 to 0.316 nM

// recorded Ki for Cc1cccc(-c2[nH]cnc2-c2ccc3ncc(-c4cc(C(=O)OC5CCNCC5)ccn4)cc3c2)n1 : 0.0398 to 0.316 nM

====

For each of the compounds below, state its Ki.
# tested_on: recombinant human ALK5 (TGF-βR1) protein (Homo sapiens)
# Construct: purchased Life Technologies PR9075A
# Sequence (P36897 34-503): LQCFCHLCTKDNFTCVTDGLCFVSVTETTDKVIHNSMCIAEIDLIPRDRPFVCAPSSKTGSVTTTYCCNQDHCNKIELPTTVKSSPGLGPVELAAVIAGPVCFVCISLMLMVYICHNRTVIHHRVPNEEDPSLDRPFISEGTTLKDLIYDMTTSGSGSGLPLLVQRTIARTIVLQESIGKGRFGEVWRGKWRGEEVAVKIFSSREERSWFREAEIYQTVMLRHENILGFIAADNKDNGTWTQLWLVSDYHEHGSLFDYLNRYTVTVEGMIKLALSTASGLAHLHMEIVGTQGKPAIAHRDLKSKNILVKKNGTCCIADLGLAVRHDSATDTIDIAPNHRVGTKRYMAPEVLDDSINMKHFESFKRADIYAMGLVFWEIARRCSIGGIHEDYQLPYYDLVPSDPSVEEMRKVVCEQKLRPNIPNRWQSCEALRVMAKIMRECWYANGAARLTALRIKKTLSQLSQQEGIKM
# assay_info: Biochemical ALK5 (TGF-βR1) assay to measure pKi (LANCE Ultra ULight kinase assay)
# condition_set: apparent pKi from pIC50 by Cheng-Prusoff, read-out: ALK5 pKi (converted)

// recorded Ki for Cc1cccc(-c2[nH]cnc2-c2ccc3ncc(NC[C@@H]4CCCN4)cc3c2)n1 : 0.0398 to 0.316 nM

// recorded Ki for Cc1nc(-c2n[nH]cc2-c2ccc3ncc(-c4cc5n(n4)CCCN5)cc3n2)ccc1F : < 0.0316 nM

// recorded Ki for Cc1cccc(-c2n[nH]cc2-c2ccc3ncc(-c4cccn(C)c4=O)cc3n2)n1 : < 0.0316 nM

// recorded Ki for Cc1cccc(-c2[nH]cnc2-c2ccc3ncc(-c4ccnc(C(=O)OCC5CNC5)c4)cc3c2)n1 : 0.0398 to 0.316 nM

// recorded Ki for Cc1cccc(-c2[nH]nnc2-c2ccc3ncc(N4CCNCC4)cc3n2)n1 : 0.398 to 3.16 nM

// recorded Ki for Cc1cccc(-c2[nH]cnc2-c2ccc3ncc(NCCN4CCC(C(=O)O)CC4)cc3c2)n1 : 0.0398 to 0.316 nM

// recorded Ki for Cc1cccc(-c2n[nH]cc2-c2ccc3ncc(N4CC5CNC5C4)cc3c2)n1 (stereo not shown) : 0.0398 to 0.316 nM

// recorded Ki for Cc1cccc(-c2n[nH]cc2-c2ccc3ncc(-c4c(C)nn5c4NCCC5)cc3n2)n1 : 0.398 to 3.16 nM

// recorded Ki for CCN1CCN(CCNc2cnc3ccc(-c4c[nH]nc4-c4cccc(C)n4)nc3c2)CC1 : 0.0398 to 0.316 nM

// recorded Ki for Cc1cccc(-c2[nH]cnc2-c2ccc3ncc(-c4cccc(C(=O)OC5CNC5)n4)cc3c2)n1 : 0.0398 to 0.316 nM

// recorded Ki for Cc1cccc(-c2[nH]cnc2-c2ccc3ncc(-c4ccc(CN5CCNCC5)nc4)cc3c2)n1 : 0.0398 to 0.316 nM

// recorded Ki for Cc1cccc(-c2n[nH]cc2-c2ccc3ncc(N4CC(N)C4)cc3n2)n1 : 0.0398 to 0.316 nM

// recorded Ki for Cc1cccc(-c2[nH]cnc2-c2ccc3ncc(-c4nc(C(=O)OCCN5C[C@@H](C)N[C@@H](C)C5)cs4)cc3c2)n1 : 0.0398 to 0.316 nM

// recorded Ki for CNCCn1cc(-c2cnc3ccc(-c4nc[nH]c4-c4cccc(C)n4)cc3c2)cn1 : < 0.0316 nM

// recorded Ki for Cc1cccc(-c2[nH]cnc2-c2ccc3ncc(C4=CCC(C(=O)OC5CCNCC5)CC4)cc3c2)n1 (stereo not shown) : 0.0398 to 0.316 nM

// recorded Ki for Cc1cccc(-c2n[nH]cc2-c2ccc3ncc(N(C)C4CCN(C)C4)cc3n2)n1 (racemic) : < 0.0316 nM

// recorded Ki for Cc1cccc(-c2n[nH]cc2-c2ccc3ncc(NCC4CN5CCN4CC5)cc3n2)n1 (stereo not shown) : 0.0398 to 0.316 nM

// recorded Ki for CNC1(Cn2cc(-c3cnc4ccc(-c5c[nH]nc5-c5ccc(F)c(C)n5)nc4c3)cn2)CC1 : < 0.0316 nM

// recorded Ki for Cc1cccc(-c2n[nH]cc2-c2ccc3nccc(CN(C)CCN4CCOCC4)c3n2)n1 : 3.98 to 31.6 nM

// recorded Ki for CNc1ccnc2ccc(-c3c[nH]nc3-c3cccc(C)n3)nc12 : 0.398 to 3.16 nM

// recorded Ki for Cc1cccc(-c2[nH]ncc2-c2ccc3ncc(C(=O)O[C@H]4CC[C@@H](N)CC4)cc3c2)n1 : 0.0398 to 0.316 nM

// recorded Ki for Cc1cccc(-c2[nH]ncc2-c2ccc3nccc(C(=O)OC[C@H]4CCCCN4)c3c2)n1 : 0.398 to 3.16 nM

// recorded Ki for Cc1cccc(-c2[nH]cnc2-c2ccc3ncc(-c4ccc(C(=O)OCCN5CCNCC5)nc4)cc3c2)n1 : 0.0398 to 0.316 nM

// recorded Ki for Cc1cccc(-c2[nH]cnc2-c2ccc3ncc(C(=O)OC[C@H]4CCC[C@H](N)C4)cc3c2)n1 (racemic) : 0.0398 to 0.316 nM

// recorded Ki for Cc1nc(-c2n[nH]cc2-c2ccc3ncc(-c4nnn5c4CNCC5)cc3n2)ccc1F : 0.0398 to 0.316 nM

// recorded Ki for CNCCn1cc(-c2cnc3ccc(-c4c[nH]nc4-c4cccc(C(F)F)n4)nc3c2)cn1 : < 0.0316 nM

// recorded Ki for Cc1cccc(-c2[nH]cnc2-c2ccc3ncc(-c4ncc(C(=O)OCC5CNC5)s4)cc3c2)n1 : 0.0398 to 0.316 nM

// recorded Ki for Cc1cccc(-c2[nH]cnc2-c2ccc3ncc(-c4ccc(C(=O)O[C@@H]5CCN(C)C5)cc4)cc3c2)n1 : 0.0398 to 0.316 nM

// recorded Ki for Cc1cccc(-c2n[nH]cc2-c2ccc3ncc(NCCN4CCN(C(C)C)CC4)cc3c2)n1 : 0.0398 to 0.316 nM

// recorded Ki for Cc1nc(-c2n[nH]cc2-c2ccc3ncc(NCCN4CCN(C(C)C)CC4)cc3n2)ccc1F : 0.0398 to 0.316 nM

// recorded Ki for Cc1cccc(-c2[nH]cnc2-c2ccc3ncc(-c4cc(C(=O)O)ccn4)cc3c2)n1 : 0.0398 to 0.316 nM
